- System: Escherichia coli TOP10
- measurement protocol: shrunken log2 fold change of peptide-encoding DNA abundance (4.5 h post-induction vs induction); higher = less antimicrobial activity (less host growth inhibition)
- condition notes: time post-induction: 4.5 h; library: site-saturation at positions 5, 18, 19, 20
endpoint label: shrunken log2 fold change
Answer field: number only, no words.

(Q) Suppose we examine the sequence RRIRHRPPRLPRPRPRPCESPRP ; what shrunken log2 fold change value has been reported?
(A) 0.0295

(Q) Fill in: shrunken log2 fold change of RRIRIRPPRLPRPRPRPYSRPRP is ___
(A) -0.0136

---

- System: Escherichia coli TOP10
- measurement protocol: shrunken log2 fold change of peptide-encoding DNA abundance (4.5 h post-induction vs induction); higher = less antimicrobial activity (less host growth inhibition)
- condition notes: time post-induction: 4.5 h; library: site-saturation at positions 5, 18, 19, 20
endpoint label: shrunken log2 fold change
I'd appreciate a reply containing only the number, no unit.

Previously resolved entries follow.
residue codes: RRIRVRPPRLPRPRPRPCCVPRP
endpoint label: shrunken log2 fold change
readout number: -0.146

residue codes: RRIRKRPPRLPRPRPRPSPWPRP
endpoint label: shrunken log2 fold change
readout number: 0.141

residue codes: RRIRKRPPRLPRPRPRPDNLPRP
endpoint label: shrunken log2 fold change
readout number: -0.0561

residue codes: RRIRDRPPRLPRPRPRPVFDPRP
endpoint label: shrunken log2 fold change
readout number: 0.291

(Q) Using the record for RRIRMRPPRLPRPRPRPLQGPRP , report its shrunken log2 fold change.
(A) 0.126

(Q) What shrunken log2 fold change value was documented for this sequence, RRIRHRPPRLPRPRPRPAQMPRP ?
(A) 0.127

(Q) Which shrunken log2 fold change is reported for this sequence? RRIRVRPPRLPRPRPRPCDHPRP
(A) -0.338

(Q) Recorded shrunken log2 fold change for RRIRWRPPRLPRPRPRPRGFPRP , please?
(A) 0.25

(Q) Quick one: shrunken log2 fold change of RRIRVRPPRLPRPRPRPHHMPRP ?
(A) -0.26

(Q) Tell me the measured shrunken log2 fold change of RRIRDRPPRLPRPRPRPRIEPRP , please.
(A) 0.119

(Q) I have this sequence here, RRIRERPPRLPRPRPRPCPCPRP , and I need its recorded shrunken log2 fold change.
(A) -0.341

(Q) Record request: shrunken log2 fold change value, item RRIRTRPPRLPRPRPRPTYRPRP
(A) -0.0768

---

- System: Escherichia coli TOP10;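 also: peptides expressed intracellularly from a pBAD plasmid library in pooled LB shake-flask culture, induced with 0.3% L-arabinose, DNA abundance read by NGS, three biological replicates, DESeq2 with apeglm shrinkage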
- measurement protocol: shrunken log2 fold change of peptide-encoding DNA abundance (4.5 h post-induction vs induction); higher = less antimicrobial activity (less host growth inhibition)
- condition notes: time post-induction: 4.5 h; library: site-saturation at positions 5, 18, 19, 20
endpoint label: shrunken log2 fold change
Hey, just send me the number, nothing else.

Here is how some sequences turned out for shrunken log2 fold change.
residue codes: RRIRERPPRLPRPRPRPKIDPRP
readout number: -0.0798
--
residue codes: RRIRSRPPRLPRPRPRPHVLPRP
readout number: -0.54
--
residue codes: RRIRRRPPRLPRPRPRPWPEPRP
readout number: -0.201

(Q) Given RRIRQRPPRLPRPRPRPWMLPRP , state its recorded shrunken log2 fold change.
(A) -0.267

(Q) Look at this sequence and give its reported shrunken log2 fold change. RRIRQRPPRLPRPRPRPGWPPRP
(A) 0.514

(Q) Could you tell me which shrunken log2 fold change is on file for RRIRRRPPRLPRPRPRPLHFPRP ?
(A) 0.397

(Q) // query shrunken log2 fold change value for entry RRIRRRPPRLPRPRPRPGAEPRP
(A) 2.68

(Q) Any idea what shrunken log2 fold change was measured for RRIRPRPPRLPRPRPRPRNGPRP ?
(A) -0.0237

(Q) May I ask what shrunken log2 fold change has been recorded for RRIRERPPRLPRPRPRPECQPRP ?
(A) -0.0134

(Q) Item under review: RRIRARPPRLPRPRPRPMETPRP . Reported shrunken log2 fold change?
(A) -0.0508

(Q) What shrunken log2 fold change value was documented for this sequence, RRIRDRPPRLPRPRPRPDIEPRP ?
(A) 0.105
